A collection of compounds and their measured log10 vapour pressure (mmHg)
A bare number is all that is needed in reply.

- Substance Smiles: "Clc1ccc(Oc2c(Cl)cccc2Cl)cc1"
  Endpoint Value: -3.66
- Substance Smiles: "COC(=O)C1=CCCN(C)C1"
  Endpoint Value: -1.1

Alright, here's another compound for you.
Looking for the measured log10 vapour pressure (mmHg) of COC(=O)Nc1cccc(OC(=O)Nc2cccc(C)c2)c1 , can you help?
-11

###

Quick reference: log10 BCF of the listed items.
- Measurement Conditions: fish
Number only, please.

Use the examples below as a reference point.
- Compound: "CC(C)(c1cc(Br)c(O)c(Br)c1)c1cc(Br)c(O)c(Br)c1"
  log10 BCF: 2.43
- Compound: "Clc1cccc(-c2ccccc2)c1Cl"
  log10 BCF: 3.98
- Compound: "Nc1ccc(Cc2ccc(N)c(Cl)c2)cc1Cl"
  log10 BCF: 2.24
- Compound: "Clc1cc(Cl)c2c(c1Cl)Oc1ccccc1O2"
  log10 BCF: 2.75
- Compound: "C1CCCCC1"
  log10 BCF: 1.92

Name the recorded log10 BCF for CCOP(=S)(OCC)Oc1nc(Cl)c(Cl)cc1Cl .
3.18

// returns reported log10 BCF for input Nc1ccccn1
1.06

What value of log10 BCF has been reported for the following compound? CCCCCCCCOc1ccc(C(=O)c2ccccc2)c(O)c1
1.9

Quick one: log10 BCF of CC(C)=C1C=C2CCC3C(C)(C(=O)O)CCCC3(C)C2CC1 (stereo unspecified) ?
2.17

Give the measured log10 BCF of O=C1c2ccccc2C(=O)c2cc(Cl)ccc21 .
2.28

Report log10 BCF for FC(F)(F)c1ccccc1 please.
1.65

What log10 BCF value was documented for this compound, O=C1CCCCC1C1=CCCCC1 (stereo unspecified) ?
0.7

What value of log10 BCF has been recorded for this entry: c1ccc2c(c1)CCCC2
2.53

Look at this compound and give its reported log10 BCF. Nc1ccc(-c2ccc(N)c(Cl)c2)cc1Cl
2.16

Recorded log10 BCF for Oc1ccc(Cl)cc1 , please?
1.48

Need log10 BCF, item CCCCCCCCCCCC
2.38

###

Parameter: melting point (°C)
Answer in °C, number only, no unit symbol.

- Compound: "Cc1ccc(C(=O)COc2c(C(=O)c3ccc(Cl)c(C)c3Cl)c(C)nn2C)cc1"
  Parameter: "melting point"
  Unit Tag: "°C"
  Endpoint Value: 133

Can you share its melting point? I mean this compound: CNCC(O)c1ccc(O)cc1 (stereo not drawn)
184

Item under review: CC(O)CC(C)(C)O (stereo not drawn) . Reported melting point?
-50

Given CC(=O)OC(C)OC(C)=O , state its recorded melting point.
18.9

# query: melting point of entry COc1ccc2c3c1O[C@H]1[C@@H](O)C=C[C@H]4[C@@H](C2)N(C)CC[C@@]341.Cl
280

Which value of melting point has been reported for CC(C)[N+](C)(CCOC(=O)C1c2ccccc2Oc2ccccc21)C(C)C.[Br-] in the records?
160

Give its melting point value. Item: Clc1ccc2c(c1)oc1c(Cl)c(Cl)cc(Cl)c12
190

Fill blank: measured melting point of the compound CCCOC(C)=O is ____.
-93

Entry C=CC1(C(C)CCC)C(=O)NC(=O)NC1=O (stereo not drawn) has what melting point?
91
